# target of assay: FGFR4 (human)
# test method notes: KINOMEscan competition binding
# test context: compound 10.0 µM
assay readout: kinase still bound, per cent of control
Form entry: enter the amount, then its unit.

{"test smiles": "Cc1ccc2nc(NCCN)c3ncc(C)n3c2c1", "target of assay": "FGFR4 (human)", "kinase still bound, per cent of control": "100%"}
{"test smiles": "Cn1c(=O)n(-c2ccc(C(C)(C)C#N)cc2)c2c3cc(-c4cnc5ccccc5c4)ccc3ncc21", "target of assay": "FGFR4 (human)", "kinase still bound, per cent of control": "100%"}
{"test smiles": "COc1cc(N2CCN(C)CC2)ccc1Nc1nc(N)c(C(=O)c2c(Cl)cccc2Cl)s1", "target of assay": "FGFR4 (human)", "kinase still bound, per cent of control": "89%"}

Then this molecule:
Ask: Query for FGFR4 (human): what kinase still bound, per cent of control does the record show for `CCC(=O)N1CCN(c2ccc(-n3c(=O)ccc4cnc5ccc(-c6cnc7ccccc7c6)cc5c43)cc2C(F)(F)F)CC1` ?
Reply: 21%

All figures here come from the kinase profiling compilation of Christmann-Franck et al. (2016).
